Biological target: human GPR119 receptor (Homo sapiens, UniProt Q8TDV5, S329A/T327A)
Construct: N-terminal leader […]; expressed in transfected cells
Assay: cAMP assay (LANCE cAMP-384) in HEK293 cells stably expressing mutant human GPR119 receptor
Format: cell-based
Conditions: cAMP accumulation, HEK293 cells stably expressing mutant human GPR119; read-out: EC50
Observation type: EC50 (nM)
Dear colleague, please return just the value in nM, with no unit written.

                                   compound  readout_value
0  CC(C)OC(=O)N1CCC(ON=C2CCN(c3ccc(-c4cnco4)cc3F)CC2)CC1 [Example 20-2]            498
1  CC(=O)Nc1cc(F)c(N2CCC(=NOC3CCN(C(=O)OC(C)C)CC3)CC2)cc1F [Example 35-1]             17

# compound CC(C)OC(=O)N1CCC(ON=C2CCN(c3cc(F)c(-c4ccccn4)cc3F)CC2)CC1 [Example 27-27] ; its EC50 = 159

EC50 recorded for this compound, CC(C)OC(=O)N1CCC(ON=C2CCN(c3cc(F)c(Cn4cccn4)cc3F)CC2)CC1 [Example 14-1] , is 38

# compound CC(C)OC(=O)N1CCC(ON=C2CCN(c3cc(F)c(-c4cnc(N)nc4)cc3F)CC2)CC1 [Example 27-15] ; its EC50 = 516

Entry CC(C)OC(=O)N1CCC(ON=C2CCN(c3ccc(C=O)c(F)c3)CC2)CC1 [Example 2-20] — recorded EC50 = 703

Recorded EC50 (compound Cc1ncccc1N1CCC(=NOC2CCN(C(=O)OC(C)C)CC2)CC1 [Example 4-1] ): 4800

# EC50 of Cc1c(Cl)ncnc1N1CCC(=NOC2CCN(C(=O)OC(C)C)CC2)CC1 [Example 2-52] = 653

###

Biological target: human GPR119 receptor (Homo sapiens, UniProt Q8TDV5, S329A/T327A)
Construct: N-terminal leader […]; expressed in transfected cells
Assay: cAMP assay (LANCE cAMP-384) in HEK293 cells stably expressing mutant human GPR119 receptor
Format: cell-based
Settings: cAMP accumulation, HEK293 cells stably expressing mutant human GPR119; read-out: EC50
Observation type: EC50

Solved cases below.
>>> df
                            chemical_string                             target_entity  observation_type  readout_value
0  Cc1ccc(-c2cc(F)c(N3CCC(=NOC4CCN(C(=O)OC(C)C)CC4)CC3)cc2F)s1  human GPR119 receptor (Homo sapiens, UniProt Q8TDV5, S329A/T327A)              EC50       0.274 µM
1  CC(C)OC(=O)N1CCC(ON=C2CCN(c3nc(Cl)ccc3CO)CC2)CC1  human GPR119 receptor (Homo sapiens, UniProt Q8TDV5, S329A/T327A)              EC50        > 10 µM
2  Cc1cccc(N2CCC(=NOC3CCN(C(=O)OC(C)C)CC3)CC2)n1  human GPR119 receptor (Homo sapiens, UniProt Q8TDV5, S329A/T327A)              EC50        > 10 µM

Proceed to the following item.
Item `CC(C)OC(=O)N1CCC(ON=C2CCN(c3cc(F)c(CNC=O)cc3F)CC2)CC1` was tested on human GPR119 receptor (Homo sapiens, UniProt Q8TDV5, S329A/T327A); the reported EC50 is 0.12 µM

###

Item-by-item account of pEC50
Biological target: human GPR119 receptor (Homo sapiens, UniProt Q8TDV5, S329A/T327A)
Construct: N-terminal leader […]; expressed in transfected cells
Assay: cAMP assay (LANCE cAMP-384) in HEK293 cells stably expressing mutant human GPR119 receptor
Type: cell-based
Conditions: the 36th table, compounds 66-1 to 66-51; read-out: EC50
pEC50: −log10 of the molar value.

Here is how some molecules turned out for pEC50.
                            chemical_string  readout_value
0  CS(=O)(=O)c1ccc(N2CCC(=NOC3CCN(Cc4ccc(F)cc4)CC3)CC2)c(F)c1           6.09
1  Cc1c(CN2CCC(ON=C3CCN(c4ccc(S(C)(=O)=O)cc4F)CC3)CC2)cnn1C         < 5.00
2  Cc1nc[nH]c1CN1CCC(ON=C2CCN(c3ccc(S(C)(=O)=O)cc3F)CC2)CC1         < 5.00
3  Cc1nc(CN2CCC(ON=C3CCN(c4ccc(S(C)(=O)=O)cc4F)CC3)CC2)cs1         < 5.00
4  Cc1ccc(CN2CCC(ON=C3CCN(c4ccc(S(C)(=O)=O)cc4F)CC3)CC2)cc1           6.54
5  CS(=O)(=O)c1ccc(N2CCC(=NOC3CCN(Cc4ccccn4)CC3)CC2)c(F)c1         < 5.00
6  CS(=O)(=O)c1ccc(N2CCC(=NOC3CCN(Cc4cscn4)CC3)CC2)c(F)c1         < 5.00

--- query ---
Record summary for `CS(=O)(=O)c1ccc(N2CCC(=NOC3CCN(Cc4ccc(Br)cc4)CC3)CC2)c(F)c1` : reported pEC50 = 6.22

###

// values below are reported pEC50
Target: human GPR119 receptor (Homo sapiens, UniProt Q8TDV5, S329A/T327A)
Construct: N-terminal leader […]; expressed in transfected cells
Sequence (Q8TDV5 with tags, fused parts or gaps T327A/S329A): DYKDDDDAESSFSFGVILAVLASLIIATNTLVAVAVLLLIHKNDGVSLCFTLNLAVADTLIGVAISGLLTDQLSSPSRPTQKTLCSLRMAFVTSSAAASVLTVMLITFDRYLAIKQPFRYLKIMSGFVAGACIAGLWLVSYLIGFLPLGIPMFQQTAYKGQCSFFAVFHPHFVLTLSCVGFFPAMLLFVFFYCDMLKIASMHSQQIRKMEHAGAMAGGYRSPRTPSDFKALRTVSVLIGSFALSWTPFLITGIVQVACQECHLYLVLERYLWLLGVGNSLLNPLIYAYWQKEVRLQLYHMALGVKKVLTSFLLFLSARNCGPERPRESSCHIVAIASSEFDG
Assay: cAMP assay (LANCE cAMP-384) in HEK293 cells stably expressing mutant human GPR119 receptor
Format: cell-based
Details: the 33rd table; read-out: EC50
pEC50 (log units): -log10 of the concentration in mol/L.

>>> print(df.to_string())
                                   molecule  readout_value
0  COC(=O)CC(C)OC(=O)N1CCC(ON=C2CCN(c3ccc(S(C)(=O)=O)cc3F)CC2)CC1 (stereo not drawn)           6.71
1  CC(C)(C)CCOC(=O)N1CCC(ON=C2CCN(c3ccc(S(C)(=O)=O)cc3F)CC2)CC1           6.69
2  COC(=O)[C@@H](C)COC(=O)N1CCC(ON=C2CCN(c3ccc(S(C)(=O)=O)cc3F)CC2)CC1 [Example 64-24]           6.15

Query `C#CCOC(=O)N1CCC(ON=C2CCN(c3ccc(S(C)(=O)=O)cc3F)CC2)CC1` yields pEC50 of 6.35

Just so you know, measured pEC50 for `CS(=O)(=O)c1ccc(N2CCC(=NOC3CCN(C(=O)OC4CCC4)CC3)CC2)c(F)c1` came out at 7.09

// recorded pEC50 for `CC(C)CCOC(=O)N1CCC(ON=C2CCN(c3ccc(S(C)(=O)=O)cc3F)CC2)CC1` : 7.05

// field: pEC50; key: COC(=O)[C@@H](C)COC(=O)N1CCC(ON=C2CCN(c3ccc(S(C)(=O)=O)cc3F)CC2)CC1 [Example 64-23] ; value = 6.03

Measured pEC50 of `CS(=O)(=O)c1ccc(N2CCC(=NOC3CCN(C(=O)OCc4ccccn4)CC3)CC2)c(F)c1` : 5.97

Reported pEC50 of `CCCCOC(=O)N1CCC(ON=C2CCN(c3ccc(S(C)(=O)=O)cc3F)CC2)CC1` : 7.27

The measured pEC50 associated with `COC(=O)C(C)(C)COC(=O)N1CCC(ON=C2CCN(c3ccc(S(C)(=O)=O)cc3F)CC2)CC1` reads 6.56

The reported pEC50 of the molecule `CC[C@H](C)COC(=O)N1CCC(ON=C2CCN(c3ccc(S(C)(=O)=O)cc3F)CC2)CC1` was 7.27

###

Quick reference for pEC50 among some compounds
Biological target: human GPR119 receptor (Homo sapiens, UniProt Q8TDV5, S329A/T327A)
Construct: N-terminal leader […]; expressed in transfected cells
Assay: cAMP assay (LANCE cAMP-384) in HEK293 cells stably expressing mutant human GPR119 receptor
Assay type: cell-based
Settings: cAMP accumulation, HEK293 cells stably expressing mutant human GPR119; read-out: EC50
Please express pEC50 as -log10 of the molar concentration.

Example compounds with recorded pEC50:
>>> print(df.to_string())
                                   compound  readout_value
0  CC(C)OC(=O)N1CCC(ON=C2CCN(c3cc(F)c(CN4CCOC(CC(=O)O)C4)cc3F)CC2)CC1 (stereo not drawn) [Example 5-2]           5.23
1  CC(C)OC(=O)N1CCC(ON=C2CCN(c3c(F)c(F)c(C(N)=O)c(F)c3F)CC2)CC1 [Example 2-57]           7.25
2  CC(=O)N(C)Cc1cc(F)c(N2CCC(=NOC3CCN(C(=O)OC(C)C)CC3)CC2)cc1F [Example 18-1]           6.90
3  CC(C)OC(=O)N1CCC(ON=C2CCN(c3cc(F)c([N+](=O)[O-])cc3F)CC2)CC1 [Example 2-62]           6.52
4  CC(C)OC(=O)N1CCC(ON=C2CCN(c3cc(F)c(-c4ncccn4)cc3F)CC2)CC1 [Example 27-20]           6.57

Consider the record given below.
Measured pEC50 of CC(C)OC(=O)N1CCC(ON=C2CCN(c3ccc(CO)c(Cl)n3)CC2)CC1 [Example 2-26] : 6.12
